# TARGET: T1, Recombinant murine PDGF-BB (mouse, UniProt P31240 82-190, limits assumed)
# T1 construct: For SPR chemically biotinylated on primary amines and captured on neutravidin; also called mouse PDGF-BB; PDGF-BB (mouse)
# T1 sequence (P31240 82-190 limits assumed): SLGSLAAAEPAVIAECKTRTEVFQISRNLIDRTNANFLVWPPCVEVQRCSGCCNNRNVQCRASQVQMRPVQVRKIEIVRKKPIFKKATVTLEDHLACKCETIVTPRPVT
# ASSAY DETAILS: SPR (ProteOn), biotinylated PDGF-BB on neutravidin chip, DARPin injected; Kd from on- and off-rates
// boundary case: Kd equal to 0.08 nM maps to false; strictly smaller maps to true

binder="DARPin #34 (designed binder) MRGSHHHHHHGSDLGDKLLQSDLGRKLLHAARSGQDDEVRILLAAGADVNAKDEDGTTPLHYAAAWGHLEIVEVLLKAGADVNAQDIYGATPADLAAYIGHEDIAEVLQKLN" category_label=true
binder="DARPin #44 (designed binder) MRGSHHHHHHGSDLGAKLLHAAVVGQDDEVRILLAAGADVNAKDKSGHTPLHLAAYSGHLEIVEVLLKAGADVNAKDQEGTTPLHFAASVGHLEIVEVLLKAGADVNAQDHYGATPADLAALIGHEDIAEVLQKLN" category_label=false
binder="DARPin #26 (designed binder) MRGSHHHHHHGSDLGKKLLEAARAGQDDEVRILLAAGADVNAKDEEGTTPLHYAAVWGHLEIVEVLLKAGADVNAQDIYGATPADLAALVGHEDIAEILQKLN" category_label=true
binder="DARPin #25 (designed binder) MRGSHHHHHHGSDLGKKLLEAARAGQDDEVRILMANGADVNAKDEEGTTPLHYAAVWGHLEIVEVLLKAGADVNAQDIYGATPADLAALVGHEDIAEILQKLN" category_label=true
binder="DARPin #37 (designed binder) MRGSHHHHHHGSDLGWKLLEAARTGQDDEVRILLAAGADVNAKDITGTTPLHYAAAWGHMEIVEVLLKTGADVNAQDLYGATPADLAALLGHEDIAEVLQKLN" category_label=false
binder="DARPin #42 (designed binder) MRGSHHHHHHGSDLGYKLLFAAYVGQDDEVRILLAAGADVNAKDRHGRTPLHLAAWEGHLEIVEVLLKAGADVNAKDDEGTTPLHLLAAWEGHLEIVEVLLKAGADVNAQDVYGATPADLAAYIGHEDIAEVLQKLN" category_label=false

Hello, the source for this data is patent US20140005125A1, in case you need it.
